# Tested on: human TTR gene
# PROCEDURE_DETAILS: Editing activity in human primary hepatocytes (gRNA + ABE8.8 mRNA co-transfection, NGS of PCR amplicons)
# Type: cell-based
# STUDY_CONDITIONS: 625 ng/RNA/mL, rep 1
A collection of molecules and their measured Human hepatocytes - Editing %, 625, rep 1
Just the number in %, nothing appended.

// worked examples, Human hepatocytes - Editing %, 625, rep 1 included
// field: Human hepatocytes - Editing %, 625, rep 1; key: GA461: Human/Cyno TTR guide RNA, spacer UACUCACCUCUGCAUGCUCA, gRNA SEQ ID NO: 15 (nucleic acid, chemistry not given here) guide: TACTCACCTCTGCATGCTCAGTTTTAGAGCTAGAAATAGCAAGTTAAAATAAGGCTAGTCCGTTATCAACTTGAAAAAGTGGCACCGAGTCGGTGCTTTT ; value = 21.81

Human hepatocytes - Editing %, 625, rep 1 reading for GA457: Human TTR guide RNA, spacer GCCAUCCUGCCAAGAAUGAG, gRNA SEQ ID NO: 11 (nucleic acid, chemistry not given here) guide: GCCATCCTGCCAAGAATGAGGTTTTAGAGCTAGAAATAGCAAGTTAAAATAAGGCTAGTCCGTTATCAACTTGAAAAAGTGGCACCGAGTCGGTGCTTTT : 17.24

Recorded result, GA460: Human/Cyno TTR guide RNA, spacer UAUAGGAAAACCAGUGAGUC, gRNA SEQ ID NO: 14 (nucleic acid, chemistry not given here) guide: TATAGGAAAACCAGTGAGTCGTTTTAGAGCTAGAAATAGCAAGTTAAAATAAGGCTAGTCCGTTATCAACTTGAAAAAGTGGCACCGAGTCGGTGCTTTT , Human hepatocytes - Editing %, 625, rep 1: 23.77

---
Value of Human hepatocytes - Editing %, 625, rep 1 reported for the molecule GA459: Human TTR guide RNA, spacer GCAACUUACCCAGAGGCAAA, gRNA SEQ ID NO: 13 (nucleic acid, chemistry not given here) guide: GCAACTTACCCAGAGGCAAAGTTTTAGAGCTAGAAATAGCAAGTTAAAATAAGGCTAGTCCGTTATCAACTTGAAAAAGTGGCACCGAGTCGGTGCTTTT is 3.79
